test system: MT-4 cells
reported_property: CC50

// query CC50 value for entry CN(C(=O)[C@H](Cc1ccccc1)NC(=O)CN1CCNCC1=O)c1ccccc1 [Q-b1]
> 317 µM

----------
tested on: HIV-2 ROD; experiment: microbe, parasite or virus in culture; type: cell-based; details: Human immunodeficiency virus 2, MT4, read-out: EC50 HIV ROD
reported_property: EC50

Item under review: CN(C(=O)[C@H](Cc1ccccc1)NC(=O)CN1CCN(CC(=O)N[C@@H](Cc2ccccc2)C(=O)N(C)c2ccccc2)C(=O)C1)c1ccccc1 [Q-c7] . Reported EC50?
> 32.6 µM

----------
Can you tell me SI HIV ROD for the items I'm about to list?
system: HIV-2 ROD; assay: microbe, parasite or virus in culture; format: cell-based; settings: selectivity index, ratio CC50/EC50, HIV-2 ROD

Look up SI HIV ROD: `COc1ccc(N(C)C(=O)[C@H](Cc2ccccc2)NC(=O)CN2CCN(CC(=O)N[C@@H](Cc3ccccc3)C(=O)N(C)c3ccccc3)C(=O)C2)cc1`
<1.00

Likewise for `COc1ccc(N(C)C(=O)[C@H](Cc2ccccc2)NC(=O)CN2CCNCC2=O)cc1` ?
>8.94

Now consider `COc1ccc(N(C)C(=O)[C@H](Cc2ccccc2)NC(=O)CN2CCN(CC(=O)N[C@@H](Cc3cc(F)cc(F)c3)C(=O)N(C)c3ccc(OC)cc3)C(=O)C2)cc1` and answer again.
<1.00

Similarly, `COc1ccc(N(C)C(=O)[C@H](Cc2ccccc2)NC(=O)CN2CCN(CC(=O)N[C@@H](Cc3ccccc3)C(=O)N(C)c3ccccc3)CC2=O)cc1` ?
<1.00

// same read-out, input: `COc1ccc(N(C)C(=O)[C@H](Cc2cc(F)cc(F)c2)NC(=O)CN2CCN(CC(=O)N[C@@H](Cc3ccccc3)C(=O)N(C)c3ccc(OC)cc3)C(=O)C2)cc1`
<1.00
